EXPERIMENT_NOTES: Selectivity index, ratio of LD50 for human WI38 cells to LD50 for human MCF7 cells
Format: toxicity
EXPERIMENTAL_CONTEXT: WI38 cells and MCF7 cells, read-out: Selectivity Index
Please go through the items and note down their selectivity ratio.
Number only, please.

COc1cc(/C=C/C(=O)c2ccc(OCc3cn([C@@H]4O[C@H](CO)[C@@H](O)[C@H](O)[C@H]4O)nn3)cc2)cc(OC)c1OC yielded selectivity ratio of 0.64

selectivity ratio reported for this compound COc1cc(/C=C/C(=O)c2ccc(Br)cc2)ccc1OCc1cn([C@@H]2O[C@H](CO)[C@@H](O)[C@H](O)[C@H]2O)nn1 : 0.9

Query COc1cc(/C=C/C(=O)c2cc(OC)c(OC)c(OC)c2)ccc1OCc1cn([C@@H]2O[C@H](CO)[C@@H](O)[C@H](O)[C@H]2O)nn1 yields selectivity ratio of 0.77

Sure, the documented selectivity ratio for CCOc1ccc(/C=C/C(=O)c2ccc(OCc3cn([C@@H]4O[C@H](CO)[C@@H](O)[C@H](O)[C@H]4O)nn3)cc2)cc1 is 1.15

---

EXPERIMENT_NOTES: Antiproliferative activity against human WI38 cells incubated for 24 hrs by MTT assay
Type: cell-based, WI-38
EXPERIMENTAL_CONTEXT: read-out: LD50
Threshold-based label: CC50 at 24 h under 70 µM gives 1, CC50 at 24 h not under 70 µM gives 0.

Asked: Criterion: CC50 at 24 h strictly below 70 µM. Is it met by O=C(/C=C/c1ccc(Cl)c(Cl)c1)c1ccc(OCc2cn([C@@H]3O[C@H](CO)[C@@H](O)[C@H](O)[C@H]3O)nn2)cc1 ?
Given back: 1

Asked: CC50 at 24 h under 70 µM? Item: COc1cc(/C=C/C(=O)c2ccc([N+](=O)[O-])cc2)ccc1OCc1cn([C@@H]2O[C@H](CO)[C@@H](O)[C@H](O)[C@H]2O)nn1
Given back: 0

Asked: Is CC50 at 24 h of COc1cc(/C=C/C(=O)c2ccc(Br)cc2)ccc1OCc1cn([C@@H]2O[C@H](CO)[C@@H](O)[C@H](O)[C@H]2O)nn1 strictly below 70 µM?
Given back: 0

Asked: Does the reported CC50 at 24 h of the following compound sit strictly below 70 µM? COc1ccc(/C=C/C(=O)c2ccc(OCc3cn([C@@H]4O[C@H](CO)[C@@H](O)[C@H](O)[C@H]4O)nn3)cc2)cc1OC
Given back: 0

Asked: Hi there! Is CC50 at 24 h for COc1ccc(/C=C/C(=O)c2ccc(OCc3cn([C@@H]4O[C@H](CO)[C@@H](O)[C@H](O)[C@H]4O)nn3)cc2)cc1OCc1ccccc1 below 70 µM, do you know?
Given back: 0

Asked: hey, is CC50 at 24 h for CN(C)c1ccc(/C=C/C(=O)c2ccc(OCc3cn([C@@H]4O[C@H](CO)[C@@H](O)[C@H](O)[C@H]4O)nn3)cc2)cc1 lower than 70 µM or not?
Given back: 1

Asked: In plain terms, does COc1cccc(/C=C/C(=O)c2ccc(OCc3cn([C@@H]4O[C@H](CO)[C@@H](O)[C@H](O)[C@H]4O)nn3)cc2)c1 come in under 70 µM for CC50 at 24 h?
Given back: 0

Asked: Does this compound meet the criterion CC50 at 24 h < 70 µM? COc1ccccc1/C=C/C(=O)c1ccc(OCc2cn([C@@H]3O[C@H](CO)[C@@H](O)[C@H](O)[C@H]3O)nn2)cc1
Given back: 0

Asked: Does this compound meet the criterion CC50 at 24 h < 70 µM? COc1ccc(C(=O)/C=C/c2ccc(OCc3cn([C@@H]4O[C@H](CO)[C@@H](O)[C@H](O)[C@H]4O)nn3)c(OC)c2)cc1OC
Given back: 0

Asked: Consider the compound CCOc1ccc(/C=C/C(=O)c2ccc(OCc3cn([C@@H]4O[C@H](CO)[C@@H](O)[C@H](O)[C@H]4O)nn3)cc2)cc1 . Is its CC50 at 24 h strictly less than 70 µM?
Given back: 0

Asked: Hello, is CC50 at 24 h of the following compound strictly smaller than 70 µM? COc1cc(/C=C/C(=O)c2ccccc2)ccc1OCc1cn([C@@H]2O[C@H](CO)[C@@H](O)[C@H](O)[C@H]2O)nn1
Given back: 0
